- TARGET_OR_TEST_SYSTEM: mutant FLT3 protein (FLT3 D835Y) (Homo sapiens (Human), UniProt P36888, D835Y)
- ASSAY_EXPLANATION: Mutant FLT3 (FLT3 D835Y) enzyme inhibition assay
- MEASUREMENT_SETUP: ATP 15 μmol/L, read-out: IC50 value for an enzymatic activity of a mutant FLT3 protein

{"COMPOUND": "CCCNc1nc(NCCc2ccncc2)ncc1C(=O)Nc1cccc(NC(=O)CNC(=O)/C=C/CN2CC(C)NC(C)C2)c1 (stereo not drawn)", "IC50": "< 1 nM"}
{"COMPOUND": "CCCNc1nc(Nc2ccc(C(N)=O)cc2)ncc1C#Cc1cccc(NCCNC(=O)/C=C/CN(C)C)c1", "IC50": "1 to 10 nM"}
{"COMPOUND": "C=CC(=O)NCC(=O)Nc1cc(Cl)cc(NC(=O)c2cnc(NCCc3ccncc3)nc2NCCC)c1", "IC50": "1 to 10 nM"}
